Values compiled from ChEMBL document CHEMBL1128777.

Measured pIC50, listed per entry for reference.
- measurement_target: Stromelysin-1 (Homo sapiens)
- Sequence (P08254 whole entry): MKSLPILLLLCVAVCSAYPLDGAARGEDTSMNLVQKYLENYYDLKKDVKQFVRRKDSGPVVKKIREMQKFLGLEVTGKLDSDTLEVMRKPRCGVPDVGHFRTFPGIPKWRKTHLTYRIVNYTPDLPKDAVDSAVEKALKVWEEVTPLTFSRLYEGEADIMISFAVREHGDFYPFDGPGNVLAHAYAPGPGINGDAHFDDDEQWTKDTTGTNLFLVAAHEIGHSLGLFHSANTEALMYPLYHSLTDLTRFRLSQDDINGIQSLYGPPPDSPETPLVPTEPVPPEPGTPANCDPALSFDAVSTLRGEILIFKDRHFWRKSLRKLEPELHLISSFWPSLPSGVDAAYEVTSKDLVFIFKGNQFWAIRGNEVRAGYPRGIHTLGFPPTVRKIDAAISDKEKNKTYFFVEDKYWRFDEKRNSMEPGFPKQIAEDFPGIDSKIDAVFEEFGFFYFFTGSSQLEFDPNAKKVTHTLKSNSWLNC
- run_description: Inhibition of human recombinant matrix metalloprotease-3 (Stromelysin) at 10 uM
pIC50: −log10 of the molar value.
observable: pIC50

- molecule: "COC1=C[C@]23C[C@H](C[C@H](c4ccc5c(c4)OCO5)[C@H]2C)OC3=CC1=O [FUTOENONE]"
  qualifier_sign: ">"
  data_value: 6.00
- molecule: "COc1cc2c(cc1S)O[C@@H](C[C@H](c1ccc3c(c1)OCO3)C(C)O)C2 (some centres not stated)"
  qualifier_sign: "="
  data_value: 6.22

====

- measurement_target: Interstitial collagenase (Homo sapiens) (UniProt P03956)
- Sequence (whole entry): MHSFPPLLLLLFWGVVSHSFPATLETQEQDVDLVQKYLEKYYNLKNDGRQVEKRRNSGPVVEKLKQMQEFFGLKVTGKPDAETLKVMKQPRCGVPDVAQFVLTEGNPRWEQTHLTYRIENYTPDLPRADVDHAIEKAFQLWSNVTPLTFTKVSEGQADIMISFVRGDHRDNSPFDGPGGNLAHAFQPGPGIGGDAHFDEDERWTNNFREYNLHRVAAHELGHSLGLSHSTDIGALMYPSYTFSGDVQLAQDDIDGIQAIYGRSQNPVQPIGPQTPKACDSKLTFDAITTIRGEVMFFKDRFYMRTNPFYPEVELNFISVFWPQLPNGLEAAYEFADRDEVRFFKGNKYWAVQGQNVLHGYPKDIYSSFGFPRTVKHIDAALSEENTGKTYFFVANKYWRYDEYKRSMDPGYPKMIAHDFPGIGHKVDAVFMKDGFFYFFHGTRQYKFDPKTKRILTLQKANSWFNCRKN
- run_description: Inhibition of human recombinant interstitial collagenase MMP-1 at 10 uM
observable: inhibition

- compound: "COC1=C[C@]23C[C@H](C[C@H](c4ccc5c(c4)OCO5)[C@H]2C)OC3=CC1=S"
  data_value: "0%"
- compound: "COc1cc2c(cc1O)O[C@@H](C[C@H](c1ccc3c(c1)OCO3)C(C)O)C2 (some centres undefined)"
  data_value: "0%"
- compound: "C=CCc1c(O)c(OC)cc2c1O[C@@H](C[C@H](c1ccc3c(c1)OCO3)C(C)O)C2 (some centres undefined)"
  data_value: "0%"
- compound: "COC1=C[C@]23C[C@H](C[C@H](c4ccc5c(c4)OCO5)[C@H]2C)OC3=CC1=O"
  data_value: "16%"
- compound: "COc1cc2c(cc1S)O[C@@H](C[C@H](c1ccc3c(c1)OCO3)C(C)O)C2 (some centres undefined)"
  data_value: "75%"
- compound: "CNC(=O)[C@H](Cc1c[nH]c2ccccc12)NC(=O)[C@@H](CC(=O)NO)CC(C)C"
  data_value: "100%"
- compound: "COC1=C[C@]23C[C@H](C[C@H](c4cc5c(cc4Br)OCO5)[C@H]2C)OC3=C(Br)C1=O"
  data_value: "0%"
- compound: "COc1cc2c(cc1SC(C)=O)O[C@@H](C[C@H](c1ccc3c(c1)OCO3)C(C)OC(C)=O)C2 (some centres undefined)"
  data_value: "23%"
- compound: "COC1=C[C@]23C[C@H](C[C@H](c4ccc5c(c4)OCO5)[C@H]2C)OC3=C(Br)C1=O"
  data_value: "0%"
